Listed next: entries and their corresponding log10(IC50).
# TARGET_OR_SYSTEM: PDE1C (Homo sapiens)
# Sequence (Q14123 whole entry): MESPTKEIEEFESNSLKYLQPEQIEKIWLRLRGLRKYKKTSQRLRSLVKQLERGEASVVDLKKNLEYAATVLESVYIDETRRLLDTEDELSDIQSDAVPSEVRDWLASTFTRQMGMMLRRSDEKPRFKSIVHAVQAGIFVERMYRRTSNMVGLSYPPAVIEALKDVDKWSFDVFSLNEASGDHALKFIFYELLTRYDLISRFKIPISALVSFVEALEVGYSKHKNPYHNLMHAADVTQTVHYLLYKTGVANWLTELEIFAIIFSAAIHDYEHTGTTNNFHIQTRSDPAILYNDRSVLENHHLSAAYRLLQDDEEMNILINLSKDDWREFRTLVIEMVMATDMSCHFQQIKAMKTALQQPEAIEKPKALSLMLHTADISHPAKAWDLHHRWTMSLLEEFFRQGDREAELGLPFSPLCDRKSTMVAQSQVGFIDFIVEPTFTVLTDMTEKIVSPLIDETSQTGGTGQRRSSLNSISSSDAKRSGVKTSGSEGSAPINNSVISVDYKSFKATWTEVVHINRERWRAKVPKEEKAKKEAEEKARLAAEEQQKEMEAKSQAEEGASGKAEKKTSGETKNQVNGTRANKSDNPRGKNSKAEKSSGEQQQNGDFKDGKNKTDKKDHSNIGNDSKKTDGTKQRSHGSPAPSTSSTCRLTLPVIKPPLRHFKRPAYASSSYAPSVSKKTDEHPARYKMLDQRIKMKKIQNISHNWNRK
# EXPERIMENTAL_DETAILS: PDE1 inhibition assay (SPA), PDE1C
# Type: biochemical
# CONDITION_DESCRIPTION: concentration required to reach 50% inhibition of the enzyme; 15 nM tritium labelled cAMP; read-out: PDE1C inhibition (nM or %): IC50
Log scale reminder: IC50 in nM, then log10 taken.

Below are worked cases with known answers.
For reference, reported log10(IC50) for `CCCc1nnc2c(=O)n(CC3CCOCC3)ccn12` stands at 3.20

For reference, reported log10(IC50) for `CCCc1nnc2c(=O)n(CC3CC3)ccn12` stands at 3.11

For reference, reported log10(IC50) for `O=c1c2nnc(C3CCOCC3)n2cc(Cc2ccccc2)n1Cc1ccc(F)cc1` stands at 0.78

For reference, reported log10(IC50) for CCCc1nnc2c(=O)n(CC3CCC(C)CC3)ccn12 (racemic) stands at 1.81

For reference, reported log10(IC50) for `CCCc1nnc2c(=O)n(CC3CCCCC3)ccn12` stands at 1.67

For reference, reported log10(IC50) for `Cn1c(Cc2ccccc2)cn2c(C3CCOCC3)nnc2c1=O` stands at 3.45

For reference, reported log10(IC50) for CCCc1nnc2c(=O)n(Cc3cccc(F)c3)cc([C@H]3CCOC3)n12 (single isomer, unassigned) stands at 2.41

For reference, reported log10(IC50) for `O=c1c2nnc(CCF)n2ccn1Cc1cccc(F)c1` stands at 2.79

# evaluate next
For reference, reported log10(IC50) for `CCCc1nnc2c(=O)n(Cc3ccccc3C)ccn12` stands at 3.38
